# EXPERIMENTAL_DETAILS: Toxicity against african green monkey Vero cells
# Assay type: cell-based, Chlorocebus sabaeus
pIC50: −log10 of the molar value.
In this section we review reported pIC50 values for a set of molecules.

STRUCTURE_NOTATION | pIC50
Clc1nnc(NCCCn2ccnc2)c2ccccc12 | 3.36
Clc1nnc(NCCc2c[nH]cn2)c2ccccc12 | 3.37
c1ccc2c(NCCCn3ccnc3)nnc(NCCCn3ccnc3)c2c1 | 3.52
c1ccc2c(NCCc3cnc[nH]3)nnc(NCCc3cnc[nH]3)c2c1 | 3.49

###

Reported Ratio IC50 is given for each of the following molecules.
# EXPERIMENTAL_DETAILS: Selectivity index, ratio of IC50 for SOD1 in human erythrocytes to IC50 for Trypanosoma cruzi IRHOD/VO/2008/SN3 epimastigotes Iron superoxide dismutase
# Format: cell-based
PROPERTY: Ratio IC50

STRUCTURE_NOTATION | PROPERTY | VALUE_MEASURED
c1ccc2c(NCCc3c[nH]cn3)nnc(NCCc3c[nH]cn3)c2c1 | Ratio IC50 | 2.6
Clc1nnc(NCCc2c[nH]cn2)c2ccccc12 | Ratio IC50 | 5.5
Clc1nnc(NCCCn2ccnc2)c2ccccc12 | Ratio IC50 | 5.8
c1ccc2c(NCCCn3ccnc3)nnc(NCCCn3ccnc3)c2c1 | Ratio IC50 | 1.6
